growth values for the compounds below.
- System: MALME-3M melanoma
- procedure-text: NCI-60 one-dose screen, 48 h (100 = growth as untreated, 0 = no growth, -100 = all killed)
- experimental-parameters: 10 µM unless noted
Compounds without any hit were thinned out: in the full panel of roughly 83,000, 20% have a hit.
Provide the reading as a plain figure in %.

Clc1ccc(-c2nc3ccc(/C(=N\N=C\c4ccccc4)c4ccccc4)cc3[nH]2)cc1 = 97.6
CSc1ccc(/C(=N/N=C(N)N)c2ccccc2)cc1 = 50.6
CC(=O)c1ccc(NC(=O)COc2ccc(C3SCC(=O)N3c3ccc(Br)cc3)cc2)cc1 (stereo unspecified) = 107
CC1CCc2c(sc3nc(SCC(=O)N/N=C/c4cccc(O)c4O)n(-c4ccccc4)c(=O)c23)C1 (stereo unspecified) = 95.1
O=C(O)c1ccc(-n2cc(CNc3ccc(Cl)cc3)c(-c3ccc(F)cc3)n2)cc1 = 92.9

stdin: Given the compound `C/C(Cc1ccc(Cl)cc1)=C(/c1ccccc1)c1ccc(OCCN)cc1` , what is its reported growth?
stdout: 88.5

* * *

- Tested on: OVCAR-5 ovarian
- procedure-text: NCI-60 one-dose screen, 48 h (100 = growth as untreated, 0 = no growth, -100 = all killed)
- experimental-parameters: 10 µM unless noted
This is part of a sample that, as a whole, favours compounds with a hit. Of some 83,000 tested, about 20% had one in any assay.
Lab note: anything with growth at or over 90% counts as condition met; the rest go in condition not met.

C/C(=C(/C)C1CC1CCN(C(=O)c1ccccn1)S(=O)(=O)c1ccc(C)cc1)C1CCCCC1 (centres undefined) = condition met
COc1ccc(-c2no[n+]([O-])c2Nc2ccccc2Br)cc1 = condition met
NS(=O)(=O)c1ccc(Nc2nc(N/N=C/c3ccc([N+](=O)[O-])cc3)nc(Nc3ccccc3)n2)cc1 = condition not met
CS(=O)(=O)c1ccc2c(c1)c1c(n2S(=O)(=O)c2ccc(Cl)cc2)CCCC1 = condition not met

stdin: Say whether `CSc1nccc(-c2c(-c3ccc(F)c(OCc4ccc(F)cc4)c3)nc3sccn23)n1` shows growth of 90% or more.
stdout: condition met

stdin: Say whether `O=C(N/N=C\c1ccc(Cl)cc1)c1ccc2nc(-c3ccc(Br)cc3)[nH]c2c1` shows growth of 90% or more.
stdout: condition not met

stdin: Say whether `O=C(NCCCNc1cc(-c2cn(-c3ccccc3)nc2-c2cccc(O)c2)ccn1)Nc1cccc(C(F)(F)F)c1` shows growth of 90% or more.
stdout: condition not met

* * *

- System: HS 578T breast
- procedure-text: NCI-60 one-dose screen, 48 h
- experimental-parameters: 10 µM unless noted
The panel holds about 83,000 compounds, 20% with a hit somewhere; the sample as a whole holds those more often. Calls of active or inactive are those of the source. Rule for the calls: active = growth percent below 10; inactive = the rest.
Answer with one of the outcomes given here: true for active, false for inactive

CCC(=O)Nc1cc(Nc2cc(NC3CC3)n3ncc(C#N)c3n2)ccc1C = true
O=C1NC(=O)/C(=C/c2ccc(OCc3cc4ccccc4nc3Cl)cc2)S1 = false

stdin: # fetch the recorded call for `Nc1nc(-c2cccc([N+](=O)[O-])c2)c(N=Nc2ccccc2[N+](=O)[O-])s1` here
stdout: true

stdin: # fetch the recorded call for `CCOc1c(C#N)c(Nc2ccc(S(N)(=O)=O)cc2)c(C#N)c2nnc(C)n12` here
stdout: false

stdin: # fetch the recorded call for `CNC(=O)c1cc(Oc2ccc3nc(NC(=O)c4ccc(CN5CCN(C)CC5)c(C(F)(F)F)c4)sc3c2)ccn1` here
stdout: false

stdin: # fetch the recorded call for `CC(=O)Nc1cccc(-n2cnc3cc(-c4ccc(O)cc4)ccc32)c1` here
stdout: true

stdin: # fetch the recorded call for `COc1cc(/C=N/Nc2ccnc3cc(Cl)ccc23)cc(OC)c1O` here
stdout: true

stdin: # fetch the recorded call for CCC(CC)n1c(=O)c(SC2=NC3C(NN2)N(CC)C(=O)N3CC)c(C(=O)O)c2ccccc21 (stereo not drawn) here
stdout: false
